Provide the recorded activity change, negative = inhibition for the entries that follow.
# experimental_system: D(1A) dopamine receptor (Homo sapiens)
# method_summary: Antagonist of Human D 1 Dopamine Receptor: qHTS; further: on the % scale 0 is the no-effect control and ±100 the full control effect
# assay_setup: HEK293 TREx D1 cells, calcium flux, dopamine EC80; at 10 µM; hits give low values
Among all 360,000 compounds or so, about 11,000 (3.1%) were called active. The sample as a whole holds a higher share of actives than the screen did.
Answers are plain numbers, in %.

                                   compound  unit_annotation  quantitative_result
0  Cc1ccc(N(CC(=O)NCc2ccc(Cl)cc2)S(=O)(=O)N(C)C)cc1                %                   27
1  Cc1cc(Cl)ccc1OCCCC(=O)Nc1cccc(-n2cnnn2)c1                %                -32.2
2      C=CCn1c(=S)[nH]c2scc(-c3ccco3)c2c1=O                %                -62.9
3  N#C/C(=C\c1cccc(F)c1)c1nc(-c2cc3c(ccc4ccccc43)oc2=O)cs1                %                -2.97
4  CCOc1ccccc1N(C)C(=O)c1cc2c(s1)-c1ccccc1OC2                %                 7.49

Count: 2. Required value per item: activity change, negative = inhibition.
1. Fc1ccccc1Cn1cnc(NC(=S)NCCc2ccccc2)n1
2. CC(C)c1ccc(NC(=O)C2CCN(c3nc(-c4ccc(C(C)C)cc4)no3)CC2)cc1

Output:
1. 0.584
2. -20.6

Count: 2. Required value per item: activity change, negative = inhibition.
1. CC(C)C12CN3CC(C(C)C)(CN(C1)C3c1ccc(OCc3ccccc3)cc1)C2=O (configuration not stated)
2. COC(=O)CCc1sc(Nc2ccc(Br)cc2)nc1-c1ccc(OC)cc1

Output:
[-2.54, -33.1]

Count: 3. Required value per item: activity change, negative = inhibition.
1. COc1ccccc1NC(=O)C1=C(C)Nc2ncnn2C1c1sccc1C (configuration not stated)
2. c1ccc2c(c1)OCC(CNc1ncnc3nc[nH]c13)O2 (configuration not stated)
3. COc1ccc(Cn2ccn(Cc3cccc(OC)c3)c(=O)c2=O)cc1

Output:
1: 2.71; 2: -86.7; 3: -44.5
